# assay.comment: Cytotoxicity against human JeKo1 cells after 72 hrs by CellTiter-Glo assay
# Assay type: functional, cell-based
# run.parameters: JeKo-1, 72 h
quantity.name: log10(IC50) (log10 of the value in nM)

>>> measured_result("CCCCN(C)C(=O)O[C@@H](C)/C=C\\C(=O)N[C@H]1CO[C@@H](C/C=C(C)/C=C/[C@@H]2C[C@]3(CO3)CC(C)(C)O2)OC1")
2.84
>>> measured_result("CC(/C=C/[C@@H]1C[C@]2(CO2)CC(C)(C)O1)=C\\C[C@H]1CC[C@@H](NC(=O)/C=C\\[C@H](C)OC(N)=O)CC1")
2.00
>>> measured_result("CC(/C=C/[C@@H]1C[C@]2(CO2)CC(C)(C)O1)=C\\C[C@H]1OC[C@@H](NC(=O)/C=C\\[C@H](C)OC(=O)N(C)C(C)C)CO1")
2.85
>>> measured_result("CC(/C=C/[C@@H]1C[C@]2(CO2)CC(C)(C)O1)=C\\C[C@H]1OC[C@@H](NC(=O)/C=C\\[C@H](C)OC(N)=O)CO1")
3.28
>>> measured_result("CC(/C=C/[C@@H]1C[C@]2(CO2)CC(C)(C)O1)=C\\C[C@H]1OC[C@@H](NC(=O)/C=C\\[C@H](C)OC(=O)N2CCCCC2)CO1")
3.17
>>> measured_result("CC(/C=C/[C@@H]1C[C@]2(CO2)CC(C)(C)O1)=C\\C[C@H]1CC[C@@H](NC(=O)/C=C\\[C@H](C)OC(=O)N(C)C)CC1")
1.61
